- Tested on: AECO001 (ATCC25922)
- Measurement Description: MIC broth microdilution, AECO001
- Format: cell-based, E. coli
- Condition Parameters: Escherichia coli, ATCC25922, read-out: MIC AECO001
Quantity Kind: MIC

Recorded MIC, per entry:
Compound Structure String	Study Target	MIC
O=C(N[C@@H](Cn1cncn1)C(=O)NO)c1ccc(/C=C/C#Cc2ccc(CN3CCOCC3)cc2)cc1	AECO001 (ATCC25922)	< 2 µg/mL
C[C@@H](N)[C@H](NC(=O)c1ccc(C#CC#Cc2cnn(C)c2)cc1)C(=O)NO	AECO001 (ATCC25922)	< 2 µg/mL
C[C@@H](N)[C@H](NC(=O)c1ccc(C#Cc2ccncc2)cc1)C(=O)NO	AECO001 (ATCC25922)	16 to 64 µg/mL
NC[C@H](NC(=O)c1ccc(C#Cc2ccc(CNC(=O)CCC(=O)O)cc2)cc1)C(=O)NO	AECO001 (ATCC25922)	> 64 µg/mL
C[C@H](NCC(=O)N[C@H](C)[C@H](NC(=O)c1ccc(C#Cc2ccccc2)cc1)C(=O)NO)c1ccccc1	AECO001 (ATCC25922)	16 to 64 µg/mL
C[C@@H](N)[C@H](NC(=O)c1ccc(C#CC#CC2CCCCC2)cc1)C(=O)NO	AECO001 (ATCC25922)	< 2 µg/mL

query: Fill in: MIC on AECO001 (ATCC25922), entry O=C(N[C@H](C(=O)NO)C1CCS(=O)(=O)CC1)c1ccc(C#Cc2ccc(CN3CCOCC3)cc2)cc1
result: 2 to 16 µg/mL

Values compiled from patent US9617256B2.
